system: AGE-BSA crosslinked to collagen; experiment: Cross-link Breaking Assay (sandwich enzyme immunoassay); assay type: biochemical; details: anti-AGE antibody; concentration not given
MEASUREMENT_LABEL: Breaking Anti-AGE (%)
Give just the number in %; leave the unit off.

Some solved entries appear below for comparison.
O=C(C[n+]1ccsc1)c1ccccc1.[Br-]: 73
CC(=O)C[n+]1ccsc1.[Cl-]: 56

Determine its reported Breaking Anti-AGE: `Cc1c(CCO)sc[n+]1CC(N)=O.[Br-]` 65

Determine its reported Breaking Anti-AGE: `NC(=O)C[n+]1csc2ccccc21.[Br-]` 77

====

test system: AGE-BSA crosslinked to collagen; experiment: Cross-link Breaking Assay (sandwich enzyme immunoassay); format: biochemical; conditions: anti-BSA antibody; at 10 mM
# label = Satisfied if Breaking Anti-BSA >= 40% else Not satisfied

These recorded examples may help you get a feel for the data.
O=C(C[n+]1ccsc1)c1ccc2c(c1)OCCCO2.[Br-]: Not satisfied
Cc1c[n+](CC(=O)c2cc(C(C)(C)C)c(O)c(C(C)(C)C)c2)cs1: Satisfied
Cc1c(CCO)sc[n+]1CC(=O)c1ccc2ccccc2c1.[Br-]: Satisfied
Nc1ccc2c(c1)sc(N)[n+]2CC(=O)c1ccc(Br)cc1.[Br-]: Satisfied
COC(=O)c1ccc(NC(=O)C[n+]2csc(CCO)c2C)cc1O: Not satisfied

Check this molecule for Breaking Anti-BSA at or above 40%: `CCOC(=O)c1ccc(NC(=O)C[n+]2csc(CCO)c2C)cc1.[Br-]` Satisfied

====

Structures can show the parent of a compound that is named as a salt.
MEASUREMENT_LABEL: melting point

Some solved entries appear below for comparison.
CC(C)(C)C(=O)C[n+]1ccsc1.[Br-]: 211 to 212 °C
COC(=O)C[n+]1csc(C)c1C.[Br-]: 184 to 185 °C (dec.)
Cc1c(CCO)sc[n+]1CC(=O)C(C)(C)C.[Br-]: 186 to 187 °C
Cc1c[n+](CC(=O)c2cc(C(C)(C)C)c(O)c(C(C)(C)C)c2)cs1 (as salt: bromide): 210 to 211 °C
COC(=O)c1ccc(NC(=O)C[n+]2csc(CCO)c2C)cc1O (as salt: bromide): 222 to 223 °C

Determine its reported melting point: `C#CC[n+]1csc(C)c1C.[Br-]` 198 to 200 °C

Determine its reported melting point: `CCCCN(CCCC)C(=O)C[n+]1csc(CCO)c1C.[Br-]` 78 to 80 °C

Determine its reported melting point: `C#CC[n+]1csc(CCO)c1C.[Br-]` 132 to 134 °C

Determine its reported melting point: `COc1cccc(C[n+]2csc(CCO)c2C)c1.[Cl-]` 135 to 136 °C

Determine its reported melting point: `Cc1c(CCO)sc[n+]1Cc1ccccc1[N+](=O)[O-].[Br-]` 215 to 216 °C

====

target: AGE-BSA crosslinked to collagen; experiment: Cross-link Breaking Assay (sandwich enzyme immunoassay); assay type: biochemical; details: detection with anti-BSA antibody; read-out: IC50 (mM) Anti-BSA
Doc: threshold 0.5 mM (exclusive). Items with IC50 beneath it return 1 (yes); others return 0 (no).

These recorded examples may help you get a feel for the data.
CC(=O)C[n+]1ccsc1.[Cl-]: 0 (no)
Cc1c(CCO)sc[n+]1Cc1ccccc1.[Cl-]: 0 (no)
O=C(C[n+]1ccsc1)c1ccccc1.[Br-]: 1 (yes)

Continue with the molecule presented below.
Please check: IC50 for `C=Cc1sc[n+](CC(=O)c2ccccc2)c1C.[Br-]` , strictly under 0.5 mM or not? 1 (yes)
